- test target: Poly [ADP-ribose] polymerase 1 (Homo sapiens, UniProt P09874)
- Sequence (P09874 whole entry, the tested form may be a part): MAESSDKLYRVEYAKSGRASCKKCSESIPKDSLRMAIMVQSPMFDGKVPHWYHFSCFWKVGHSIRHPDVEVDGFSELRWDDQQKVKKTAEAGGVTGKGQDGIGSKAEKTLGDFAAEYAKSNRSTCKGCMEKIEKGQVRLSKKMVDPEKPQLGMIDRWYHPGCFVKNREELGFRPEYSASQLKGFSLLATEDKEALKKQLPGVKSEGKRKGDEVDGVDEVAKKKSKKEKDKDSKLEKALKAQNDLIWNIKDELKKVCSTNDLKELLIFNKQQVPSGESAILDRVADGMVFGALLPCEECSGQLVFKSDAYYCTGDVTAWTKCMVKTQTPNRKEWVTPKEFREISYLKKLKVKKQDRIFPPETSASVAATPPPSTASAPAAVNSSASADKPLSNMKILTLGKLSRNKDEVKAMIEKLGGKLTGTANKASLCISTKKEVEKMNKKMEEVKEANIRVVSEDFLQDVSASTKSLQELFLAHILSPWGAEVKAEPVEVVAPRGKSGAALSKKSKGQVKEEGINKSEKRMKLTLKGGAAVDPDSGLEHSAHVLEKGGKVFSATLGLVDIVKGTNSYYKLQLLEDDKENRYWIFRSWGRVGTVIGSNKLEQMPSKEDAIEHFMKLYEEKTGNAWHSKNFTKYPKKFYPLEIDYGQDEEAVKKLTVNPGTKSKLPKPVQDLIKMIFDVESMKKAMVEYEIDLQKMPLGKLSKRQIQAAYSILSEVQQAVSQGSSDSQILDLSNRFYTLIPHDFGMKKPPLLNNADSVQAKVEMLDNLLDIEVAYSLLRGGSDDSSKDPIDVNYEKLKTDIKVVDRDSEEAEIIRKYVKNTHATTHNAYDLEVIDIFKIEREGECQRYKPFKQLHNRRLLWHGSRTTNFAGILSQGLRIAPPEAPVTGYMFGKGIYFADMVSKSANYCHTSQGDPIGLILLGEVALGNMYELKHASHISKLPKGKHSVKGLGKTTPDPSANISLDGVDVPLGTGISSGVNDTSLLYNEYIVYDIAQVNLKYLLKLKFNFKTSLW
- assay remarks: Inhibition of PARP-1 in human HeLa cells assessed as decrease of H2O2-induced PARylation after 3 hrs by fluorescence assay
parameter: pEC50
Reminder that pEC50 is minus the log10 of a molar concentration.

Query :: Entry "NC(=O)n1ccc2ccc(-c3ccc(CN4CCCCC4)cc3)nc21" has what pEC50?
Result :: 6.40

###

# Lookup of reported IC50 keyed by entry
- test target: Poly [ADP-ribose] polymerase 1 (Homo sapiens, UniProt P09874)
- assay remarks: Inhibition of recombinant human GST-fused PARP-1 expressed in Escherichia coli after 30 mins by fluorescence assay
Give your result in µM as a bare value.

Study these solved cases before continuing.
NC(=O)n1ccc2ccc(-c3ccc(F)c(C(=O)N4CCN(C(=O)C5CC5)CC4)c3)nc21 ... 1.12
COc1ccc(-c2ccc3ccn(C(N)=O)c3n2)cc1 ... 3.76
CN(C)Cc1ccc(-c2ccc3ccn(C(N)=O)c3n2)cc1 ... 0.63

Query :: Which IC50 value belongs to "CN(C)c1ccc(-c2ccc3ccn(C(N)=O)c3n2)cc1" ?
Result :: 0.88

Query :: Now consider "NC(=O)n1ccc2cccnc21" and answer again.
Result :: 2.5

Query :: Now the same for "NC(=O)n1ccc2ccc(-c3ccc(F)cc3)nc21"
Result :: 0.27

Query :: Likewise for "NC(=O)n1ccc2ccc(N3CCCCC3)nc21" ?
Result :: 3

Query :: Queued: "CN1CCN(Cc2ccc(-c3ccc4ccn(C(N)=O)c4n3)cc2)CC1"
Result :: 1.56

Query :: Now try "NC(=O)n1ccc2ccc(-c3ccc(CN4CCCC4)cc3)nc21" .
Result :: 0.28

Query :: Quick one: "CN1CCN(c2ccc3ccn(C(N)=O)c3n2)CC1"
Result :: 0.77

Query :: Next record, please: "NC(=O)n1ccc2ccc(-c3ccccc3)nc21"
Result :: 0.27

Data provenance: ChEMBL document CHEMBL3102753
